Listing of entries alongside the reported IC50.
system: MRC-5 (human fetal lung fibroblasts, non-tumor); assay: MTT proliferation assay, MRC-5; format: cell-based; conditions: MRC5, 72 h treatment

- Molecule: "Clc1ccc2[nH]c(-c3ccc(OCc4cn(CCNc5ccnc6cc(Cl)ccc56)nn4)c(Br)c3)nc2c1 [Compound 15b]"
  IC50: "> 100 µM"
- Molecule: "Cl.Cl.Cl.N=C(N)c1ccc2[nH]c(-c3ccc(OCc4cn(CCNc5ccnc6cc(Cl)ccc56)nn4)c(Br)c3)nc2c1 [Compound 15d]"
  IC50: "> 100 µM"
- Molecule: "Clc1ccc2c(NCCn3cc(COc4ccc(-c5nc6ccccc6[nH]5)cc4Br)nn3)ccnc2c1 [Compound 15a]"
  IC50: "> 100 µM"
- Molecule: "O=c1[nH]cc(F)c(=O)[nH]1 [Compound 5-FU, 5-fluorouracil, reference compound]"
  IC50: "54.1 µM"
- Molecule: "CCCNC(=N)c1ccc2[nH]c(-c3ccc(OCc4cn(CCNc5ccnc6cc(Cl)ccc56)nn4)cc3)nc2c1.Cl.Cl.Cl [Compound 14e]"
  IC50: "> 100 µM"
- Molecule: "CCCNC(=N)c1ccc2[nH]c(-c3ccc(OCc4cn(-c5ccnc6cc(Cl)ccc56)nn4)cc3)nc2c1.Cl.Cl.Cl [Compound 9e]"
  IC50: "> 100 µM"
- Molecule: "Clc1ccc2c(-n3cc(COc4ccc(-c5nc6ccccc6[nH]5)cc4Br)nn3)ccnc2c1 [Compound 10a]"
  IC50: "52.1 µM"
- Molecule: "Clc1ccc2[nH]c(-c3ccc(OCc4cn(-c5ccnc6cc(Cl)ccc56)nn4)cc3)nc2c1 [Compound 9b]"
  IC50: "100 µM"
- Molecule: "Clc1ccc2[nH]c(-c3ccc(OCc4cn(-c5ccnc6cc(Cl)ccc56)nn4)c(Br)c3)nc2c1 [Compound 10b]"
  IC50: "> 100 µM"
- Molecule: "Clc1ccc2c(-n3cc(COc4ccc(-c5nc6ccccc6[nH]5)cc4)nn3)ccnc2c1 [Compound 9a]"
  IC50: "> 100 µM"
- Molecule: "CCCNC(=N)c1ccc2[nH]c(-c3ccc(OCc4cn(-c5ccnc6cc(Cl)ccc56)nn4)c(Br)c3)nc2c1.Cl.Cl.Cl [Compound 10e]"
  IC50: "> 100 µM"
- Molecule: "COc1ccc2[nH]c(-c3ccc(OCc4cn(CCNc5ccnc6cc(Cl)ccc56)nn4)cc3)nc2c1 [Compound 14c]"
  IC50: "> 100 µM"
- Molecule: "COc1ccc2[nH]c(-c3ccc(OCc4cn(-c5ccnc6cc(Cl)ccc56)nn4)cc3)nc2c1 [Compound 9c]"
  IC50: "2.71 µM"
- Molecule: "Clc1ccc2c(NCCn3cc(COc4ccc(-c5nc6ccccc6[nH]5)cc4)nn3)ccnc2c1 [Compound 14a]"
  IC50: "> 100 µM"
- Molecule: "Cl.Cl.Cl.N=C(N)c1ccc2[nH]c(-c3ccc(OCc4cn(-c5ccnc6cc(Cl)ccc56)nn4)cc3)nc2c1 [Compound 9d]"
  IC50: "> 100 µM"
